IC50 values for the compounds below.
# targetOrTestSystem: CYP2C19 (Homo sapiens, UniProt P33261)
# Sequence (P33261 whole entry): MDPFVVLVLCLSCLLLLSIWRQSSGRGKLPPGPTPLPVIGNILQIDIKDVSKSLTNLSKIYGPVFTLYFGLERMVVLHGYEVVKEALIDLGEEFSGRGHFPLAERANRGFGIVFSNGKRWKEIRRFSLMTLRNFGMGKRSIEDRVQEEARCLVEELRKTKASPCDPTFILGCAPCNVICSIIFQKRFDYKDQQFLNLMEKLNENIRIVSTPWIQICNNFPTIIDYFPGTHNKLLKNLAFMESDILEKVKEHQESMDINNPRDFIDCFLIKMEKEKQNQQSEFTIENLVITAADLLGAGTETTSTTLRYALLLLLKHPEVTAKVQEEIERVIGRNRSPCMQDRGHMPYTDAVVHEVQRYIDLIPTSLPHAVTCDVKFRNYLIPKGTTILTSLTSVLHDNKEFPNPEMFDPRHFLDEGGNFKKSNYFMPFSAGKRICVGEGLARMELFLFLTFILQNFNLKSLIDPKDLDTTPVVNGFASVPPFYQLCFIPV
# assayNotes: CYP2C19 inhibition (fluorescent substrate)
# Assay type: in vitro ADME
# condition: CYP2C19, CEC substrate; read-out: Cyp IC50 2C19

>>> df
                                   compound  resulttype  measuredvalue
0  COc1cnc2[nH]cc(C(=O)c3c(F)ccc(NS(=O)(=O)c4cc(F)ccc4F)c3F)c2c1 [P-2010]        IC50        > 10 µM

Find the recorded IC50 belonging to N#Cc1cnc2[nH]cc(C(=O)c3cccc(NS(=O)(=O)c4c(F)cccc4F)c3F)c2c1 [P-2054] and report it.
> 10 µM

# IC50 lookup, item CCCS(=O)(=O)Nc1ccc(F)c(C(=O)c2c[nH]c3ncc(-c4cnc(C)nc4)cc23)c1F [P-2211]
5 to 10 µM

Give the measured IC50 of CCCS(=O)(=O)Nc1ccc(F)c(C(=O)c2c[nH]c3ncc(-c4ccc(C(=O)NC5CC5)nc4)cc23)c1F [P-2181] .
> 10 µM

# input compound: CCCS(=O)(=O)Nc1ccc(F)c(C(=O)c2c[nH]c3ncc(-c4cnn(Cc5ccccc5)c4)cc23)c1F [P-2190] ; wanted: its IC50
5 to 10 µM
